The reported numbers originate from ChEMBL document CHEMBL4627346.

# target_of_assay: UniProt Q08499
# Sequence (Q08499 whole entry): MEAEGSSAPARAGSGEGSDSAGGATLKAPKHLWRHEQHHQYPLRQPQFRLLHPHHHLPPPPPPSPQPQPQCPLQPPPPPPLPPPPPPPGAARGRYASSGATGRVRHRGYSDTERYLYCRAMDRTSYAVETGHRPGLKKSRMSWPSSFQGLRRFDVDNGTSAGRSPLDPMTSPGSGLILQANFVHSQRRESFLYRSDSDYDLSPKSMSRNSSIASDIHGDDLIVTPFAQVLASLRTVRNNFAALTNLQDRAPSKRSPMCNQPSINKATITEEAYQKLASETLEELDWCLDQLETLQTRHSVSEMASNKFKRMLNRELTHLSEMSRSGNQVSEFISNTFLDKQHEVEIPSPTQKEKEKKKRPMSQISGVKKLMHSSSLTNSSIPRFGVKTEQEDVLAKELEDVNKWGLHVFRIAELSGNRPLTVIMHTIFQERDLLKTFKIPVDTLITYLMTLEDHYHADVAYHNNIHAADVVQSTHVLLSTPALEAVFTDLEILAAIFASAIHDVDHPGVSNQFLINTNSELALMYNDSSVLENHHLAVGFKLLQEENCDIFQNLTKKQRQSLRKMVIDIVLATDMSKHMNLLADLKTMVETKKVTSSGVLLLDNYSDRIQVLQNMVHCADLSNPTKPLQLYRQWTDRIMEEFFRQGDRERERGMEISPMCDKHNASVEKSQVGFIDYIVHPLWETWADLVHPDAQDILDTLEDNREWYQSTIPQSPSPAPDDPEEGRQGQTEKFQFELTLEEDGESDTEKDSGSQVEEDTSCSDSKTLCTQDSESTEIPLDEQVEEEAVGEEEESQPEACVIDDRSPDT
# run_description: Inhibition of PDE4D2 (unknown origin) at 30 uM relative to control
measured_property: inhibition at 30 µM (%)

structure=Cc1ccc2c(c1)cc(COCc1ccccc1Nc1cccc(C)c1C)n2S(C)(=O)=O experimental_value=38.9
structure=Cc1cccc(Nc2ccccc2COCc2cc3cc(F)ccc3n2S(C)(=O)=O)c1C experimental_value=42
structure=Cc1cccc(Nc2ccccc2C(=O)O)c1C experimental_value=35.5
structure=Cc1cccc(Nc2ccccc2COCc2cc3ccccc3n2S(C)(=O)=O)c1C experimental_value=40.9
structure=Cc1cccc(Nc2ccccc2COCc2cc3cc(Cl)ccc3n2S(C)(=O)=O)c1C experimental_value=33.6
